Source listed as paper PMC7956626.

target: rat TRPM8 (Rattus norvegicus); construct: expressed in transfected cells; host or cells: HEK293 (human embryonic kidney), stably transfected; experiment: Ca2+ intracellular influx assay (calcium microfluorimetry), menthol-induced; type: cell-based; conditions: compound 5 μM; 100 μM menthol; HEK-rTRPM8
Sequence (Q8R455 whole entry): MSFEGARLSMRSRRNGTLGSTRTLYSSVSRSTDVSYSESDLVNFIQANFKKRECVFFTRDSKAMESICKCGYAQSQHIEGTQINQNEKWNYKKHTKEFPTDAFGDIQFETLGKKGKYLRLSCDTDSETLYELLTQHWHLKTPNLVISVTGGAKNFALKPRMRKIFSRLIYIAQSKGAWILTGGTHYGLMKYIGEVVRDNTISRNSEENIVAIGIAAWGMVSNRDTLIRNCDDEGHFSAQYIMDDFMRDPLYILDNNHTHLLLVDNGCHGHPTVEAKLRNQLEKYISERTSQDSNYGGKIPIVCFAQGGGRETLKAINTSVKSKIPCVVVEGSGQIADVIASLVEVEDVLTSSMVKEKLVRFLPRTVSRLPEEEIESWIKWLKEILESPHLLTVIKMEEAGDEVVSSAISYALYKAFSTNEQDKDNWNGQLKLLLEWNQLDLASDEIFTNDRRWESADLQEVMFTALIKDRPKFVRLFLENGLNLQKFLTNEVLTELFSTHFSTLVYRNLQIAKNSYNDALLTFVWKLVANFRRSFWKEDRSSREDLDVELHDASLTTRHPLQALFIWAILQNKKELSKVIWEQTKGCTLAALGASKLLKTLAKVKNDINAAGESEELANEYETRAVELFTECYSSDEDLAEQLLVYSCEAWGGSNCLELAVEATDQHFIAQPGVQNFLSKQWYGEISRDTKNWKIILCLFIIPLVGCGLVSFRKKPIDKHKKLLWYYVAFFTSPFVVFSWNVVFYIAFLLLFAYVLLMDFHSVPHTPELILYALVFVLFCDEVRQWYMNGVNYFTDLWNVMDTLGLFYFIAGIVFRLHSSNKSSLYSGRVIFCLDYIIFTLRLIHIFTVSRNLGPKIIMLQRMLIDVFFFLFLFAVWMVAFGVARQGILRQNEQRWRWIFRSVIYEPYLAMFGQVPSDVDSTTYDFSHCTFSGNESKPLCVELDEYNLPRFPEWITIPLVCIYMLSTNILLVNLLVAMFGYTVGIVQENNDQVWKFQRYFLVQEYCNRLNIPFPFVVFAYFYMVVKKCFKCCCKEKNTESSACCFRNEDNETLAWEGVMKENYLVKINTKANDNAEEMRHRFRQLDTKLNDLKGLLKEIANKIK
Would you kindly list % Blockade 5 μM for each of these compounds?
Respond with the bare value in %.

Exam item: Look up % Blockade 5 μM for this compound: C[C@H]1C(=O)N(C[C@@H](Cc2ccccc2)N(Cc2ccccc2)Cc2ccccc2)[C@@]1(Cc1ccccc1)C(=O)OCc1ccccc1
Marked response: 87.3

Exam item: Look up % Blockade 5 μM for this compound: C[C@@H]1C(=O)N(C[C@@H](Cc2ccccc2)N(Cc2ccccc2)Cc2ccccc2)[C@]1(Cc1ccccc1)C(=O)OCc1ccccc1
Marked response: 78.9

Exam item: Look up % Blockade 5 μM for this compound: C[C@H]1C(=O)N(C[C@H](Cc2ccccc2)N(Cc2ccccc2)Cc2ccccc2)[C@@]1(Cc1ccccc1)C(=O)OCc1ccccc1
Marked response: 71.1

Exam item: Look up % Blockade 5 μM for this compound: C[C@@H]1C(=O)N(C[C@H](Cc2ccccc2)N(Cc2ccccc2)Cc2ccccc2)[C@]1(Cc1ccccc1)C(=O)OCc1ccccc1
Marked response: 57.7

###

Would you kindly list inhibition at 50 µM for each of these compounds?
molecular target: hTRPV1 (Homo sapiens, UniProt Q8NER1); construct: expressed in transfected cells; assay: Ca2+ influx assay, TRPV1 selectivity; assay type: cell-based; conditions: compound 50 μM; read-out: % TRPV1 Blockade at 50 μM
Sequence (Q8NER1 whole entry): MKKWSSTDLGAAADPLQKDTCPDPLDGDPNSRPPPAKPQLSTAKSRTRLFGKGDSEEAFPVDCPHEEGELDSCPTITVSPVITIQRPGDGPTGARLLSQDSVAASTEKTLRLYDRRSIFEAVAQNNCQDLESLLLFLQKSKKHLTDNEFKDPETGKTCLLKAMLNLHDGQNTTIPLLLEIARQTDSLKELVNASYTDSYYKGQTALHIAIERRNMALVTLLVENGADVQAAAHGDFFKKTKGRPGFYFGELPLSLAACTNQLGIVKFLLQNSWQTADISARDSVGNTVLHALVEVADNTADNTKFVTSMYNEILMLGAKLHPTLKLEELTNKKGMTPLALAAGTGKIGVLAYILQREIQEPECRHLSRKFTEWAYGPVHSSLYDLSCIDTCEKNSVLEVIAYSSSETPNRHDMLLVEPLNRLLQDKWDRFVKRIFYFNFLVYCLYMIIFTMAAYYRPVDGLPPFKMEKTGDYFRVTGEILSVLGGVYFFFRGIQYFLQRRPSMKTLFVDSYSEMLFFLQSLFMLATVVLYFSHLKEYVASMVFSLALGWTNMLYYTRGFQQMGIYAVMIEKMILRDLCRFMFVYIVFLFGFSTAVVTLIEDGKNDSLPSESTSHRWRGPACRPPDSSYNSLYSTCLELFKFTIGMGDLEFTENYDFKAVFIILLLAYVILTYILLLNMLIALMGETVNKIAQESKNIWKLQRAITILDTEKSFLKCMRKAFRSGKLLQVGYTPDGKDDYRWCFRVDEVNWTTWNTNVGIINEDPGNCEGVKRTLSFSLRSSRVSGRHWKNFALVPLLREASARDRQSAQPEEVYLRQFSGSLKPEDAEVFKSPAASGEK
Respond with the bare value in %.

Exam item: Look up inhibition at 50 µM for this compound: C[C@@H]1C(=O)N(C[C@@H](Cc2ccccc2)N(Cc2ccccc2)Cc2ccccc2)[C@]1(Cc1ccccc1)C(=O)OCc1ccccc1 [Compound 14]
Marked response: 2.8

Exam item: Look up inhibition at 50 µM for this compound: C[C@@H]1C(=O)N(C[C@H](Cc2ccccc2)N(Cc2ccccc2)Cc2ccccc2)[C@]1(Cc1ccccc1)C(=O)OCc1ccccc1 [Compound 13]
Marked response: 7.9

Exam item: Look up inhibition at 50 µM for this compound: C[C@H]1C(=O)N(C[C@H](Cc2ccccc2)N(Cc2ccccc2)Cc2ccccc2)[C@@]1(Cc1ccccc1)C(=O)OCc1ccccc1 [Compound 15]
Marked response: 5.3

Exam item: Look up inhibition at 50 µM for this compound: C[C@H]1C(=O)N(C[C@@H](Cc2ccccc2)N(Cc2ccccc2)Cc2ccccc2)[C@@]1(Cc1ccccc1)C(=O)OCc1ccccc1 [Compound 16]
Marked response: 4.2

###

biological target: rat TRPM8 (Rattus norvegicus); construct: expressed in transfected cells; host or cells: HEK293 (human embryonic kidney), stably transfected; experiment: Ca2+ intracellular influx assay (calcium microfluorimetry), menthol-induced; type: cell-based; conditions: compound 50 μM; 100 μM menthol; HEK-rTRPM8
MEASURED ENDPOINT: % Blockade 50 μM
Respond with a number, then the unit of measure.

Exam item: Please tell me: % Blockade 50 μM of C[C@H]1C(=O)N(C[C@@H](Cc2ccccc2)N(Cc2ccccc2)Cc2ccccc2)[C@@]1(Cc1ccccc1)C(=O)OCc1ccccc1 , system rat TRPM8 (Rattus norvegicus)?
Marked response: 98.5 ± 3.2%

Exam item: Please tell me: % Blockade 50 μM of C[C@H]1C(=O)N(C[C@H](Cc2ccccc2)N(Cc2ccccc2)Cc2ccccc2)[C@@]1(Cc1ccccc1)C(=O)OCc1ccccc1 , system rat TRPM8 (Rattus norvegicus)?
Marked response: 90.3 ± 2.8%

Exam item: Please tell me: % Blockade 50 μM of C[C@@H]1C(=O)N(C[C@@H](Cc2ccccc2)N(Cc2ccccc2)Cc2ccccc2)[C@]1(Cc1ccccc1)C(=O)OCc1ccccc1 , system rat TRPM8 (Rattus norvegicus)?
Marked response: 87.7 ± 3.1%

Exam item: Please tell me: % Blockade 50 μM of C[C@@H]1C(=O)N(C[C@H](Cc2ccccc2)N(Cc2ccccc2)Cc2ccccc2)[C@]1(Cc1ccccc1)C(=O)OCc1ccccc1 , system rat TRPM8 (Rattus norvegicus)?
Marked response: 86.1 ± 5.0%
